Source listed as paper PMC11861906.

biological target: GPR55 mutant G152F (Gα13) (Homo sapiens, UniProt Q9Y2T6, G152F); test: BRET² G protein dissociation assay, GPR55 G152F with Gα13; conditions: GPR55 G152F, Gα13
Sequence (Q9Y2T6 whole entry G152F, one chain of several): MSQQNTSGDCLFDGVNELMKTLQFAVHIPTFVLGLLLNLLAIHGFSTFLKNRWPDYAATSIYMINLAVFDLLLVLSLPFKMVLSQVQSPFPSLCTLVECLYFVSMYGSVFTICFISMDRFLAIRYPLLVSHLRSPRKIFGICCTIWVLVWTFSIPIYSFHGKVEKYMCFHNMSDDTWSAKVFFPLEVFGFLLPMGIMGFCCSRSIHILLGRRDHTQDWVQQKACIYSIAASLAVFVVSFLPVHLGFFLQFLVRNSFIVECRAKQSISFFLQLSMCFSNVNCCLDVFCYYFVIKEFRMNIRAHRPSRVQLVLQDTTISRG
pEC50: −log10 of the molar value.
Observed Property: pEC50

# Cpd Smiles, Tgt, Reported Value
rows = [
    ("Cc1cccc(N2CCN(C(=O)c3cc(S(=O)(=O)N(C)C)ccc3N3CCCC3)CC2)c1C", "GPR55 mutant G152F (Gα13) (Homo sapiens, UniProt Q9Y2T6, G152F)", 7.66),
]

----------
molecular target: GPR55 cryo-EM construct (Gα13) (Homo sapiens, UniProt Q9Y2T6); experiment: BRET² G protein dissociation assay, GPR55 cryo-EM construct (GFP G67A) with Gα13; details: Cryo-EM construct (G67A), Gα13
Sequence (Q9Y2T6 whole entry): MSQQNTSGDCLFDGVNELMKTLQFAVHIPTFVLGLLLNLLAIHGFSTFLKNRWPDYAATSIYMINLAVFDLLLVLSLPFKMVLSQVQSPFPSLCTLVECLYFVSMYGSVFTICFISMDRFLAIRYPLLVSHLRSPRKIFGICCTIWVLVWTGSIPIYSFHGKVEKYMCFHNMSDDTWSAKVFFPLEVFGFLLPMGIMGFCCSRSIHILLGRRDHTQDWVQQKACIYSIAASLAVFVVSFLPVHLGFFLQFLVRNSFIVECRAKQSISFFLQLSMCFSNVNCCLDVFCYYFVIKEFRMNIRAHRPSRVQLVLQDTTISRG
Sequence (Q14344 whole entry partner): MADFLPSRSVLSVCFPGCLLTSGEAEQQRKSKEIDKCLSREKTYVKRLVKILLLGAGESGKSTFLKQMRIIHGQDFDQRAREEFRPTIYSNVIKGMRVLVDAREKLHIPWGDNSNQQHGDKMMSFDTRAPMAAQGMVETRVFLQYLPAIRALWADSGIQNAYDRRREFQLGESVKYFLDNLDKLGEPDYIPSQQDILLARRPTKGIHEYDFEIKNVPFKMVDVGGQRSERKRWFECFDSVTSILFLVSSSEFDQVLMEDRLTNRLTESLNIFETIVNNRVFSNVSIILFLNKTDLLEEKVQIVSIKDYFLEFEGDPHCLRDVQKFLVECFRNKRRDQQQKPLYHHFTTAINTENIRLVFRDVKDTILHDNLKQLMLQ
Sequence (P16520 whole entry partner): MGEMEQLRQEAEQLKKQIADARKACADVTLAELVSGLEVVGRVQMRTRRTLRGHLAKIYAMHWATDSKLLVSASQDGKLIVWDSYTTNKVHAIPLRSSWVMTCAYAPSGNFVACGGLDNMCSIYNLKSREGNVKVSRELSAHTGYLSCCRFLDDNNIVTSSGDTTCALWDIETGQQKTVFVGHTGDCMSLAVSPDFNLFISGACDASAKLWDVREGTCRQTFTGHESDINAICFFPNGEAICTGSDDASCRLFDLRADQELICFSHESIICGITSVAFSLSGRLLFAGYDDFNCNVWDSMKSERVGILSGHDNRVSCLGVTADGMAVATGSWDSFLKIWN
Sequence (O14610 1-66 partner limits assumed): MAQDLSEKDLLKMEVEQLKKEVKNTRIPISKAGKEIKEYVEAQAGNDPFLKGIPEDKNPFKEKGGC
pEC50: −log10 of the molar value.

# Cpd Smiles, pEC50
data = [
    ("Cc1cccc(N2CCN(C(=O)c3cc(S(=O)(=O)N(C)C)ccc3N3CCCC3)CC2)c1C", 7.74),
]

----------
target: thromboxane A2 receptor (TBXA2R) (Gα12) (Homo sapiens, UniProt P21731); assay: BRET² G protein dissociation assay, TBXA2R with Gα12; details: TBXA2R via Gα12; read-out: potency (EC50)
Sequence (P21731 whole entry, species assumed, one chain of several): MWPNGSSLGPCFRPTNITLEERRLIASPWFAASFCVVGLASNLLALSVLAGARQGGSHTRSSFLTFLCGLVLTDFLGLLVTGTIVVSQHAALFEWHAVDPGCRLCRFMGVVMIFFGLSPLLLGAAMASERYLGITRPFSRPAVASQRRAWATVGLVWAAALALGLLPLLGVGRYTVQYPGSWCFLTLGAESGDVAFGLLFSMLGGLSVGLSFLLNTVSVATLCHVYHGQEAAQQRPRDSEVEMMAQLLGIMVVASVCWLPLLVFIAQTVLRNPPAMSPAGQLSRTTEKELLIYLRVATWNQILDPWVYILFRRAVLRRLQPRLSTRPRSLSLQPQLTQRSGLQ
Sequence (Q03113 whole entry partner, species assumed, one chain of several): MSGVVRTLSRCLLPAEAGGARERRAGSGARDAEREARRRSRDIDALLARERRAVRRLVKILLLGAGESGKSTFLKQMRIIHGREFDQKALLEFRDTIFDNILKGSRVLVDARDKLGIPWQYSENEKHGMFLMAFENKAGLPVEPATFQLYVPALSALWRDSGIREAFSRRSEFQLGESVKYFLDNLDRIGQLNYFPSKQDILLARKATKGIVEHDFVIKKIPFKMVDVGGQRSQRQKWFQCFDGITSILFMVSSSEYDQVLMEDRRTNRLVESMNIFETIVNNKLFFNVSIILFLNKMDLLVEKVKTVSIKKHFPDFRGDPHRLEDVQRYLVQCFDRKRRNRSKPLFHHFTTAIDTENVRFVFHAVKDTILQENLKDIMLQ
Observed Property: EC50 (nM)

# Cpd Smiles, Observed Property, Reported Value
data = [
    ("CCCCC[C@H](O)/C=C/[C@@H]1[C@@H](C/C=C\\CCCC(=O)O)[C@H]2CO[C@@H]1C2", "EC50", 24),
]

----------
target: GPR55 mutant R253A (Gα13) (Homo sapiens, UniProt Q9Y2T6, R253A); experiment: BRET² G protein dissociation assay, GPR55 R253A with Gα13; details: GPR55 R253A, Gα13
Sequence (Q9Y2T6 whole entry R253A, one chain of several): as the sequence (Q9Y2T6 whole entry G152F, one chain of several) above, with F152G, R253A counted along it
Observed Property: EC50 (nM)

# Compound, Tgt, Unit Spec, Reported Value
measured = [
    ("Cc1cccc(N2CCN(C(=O)c3cc(S(=O)(=O)N(C)C)ccc3N3CCCC3)CC2)c1C [ML184]", "GPR55 mutant R253A (Gα13) (Homo sapiens, UniProt Q9Y2T6, R253A)", "nM", 14.5),
]

----------
target: wt GPR55 (Gα13 mutant Q373D) (Homo sapiens); test: BRET² G protein dissociation assay, wt GPR55 with Gα13-Q373D; conditions: wt GPR55, Gα13-Q373D
Sequence (Q9Y2T6 whole entry, stated change not applied): as the sequence (Q9Y2T6 whole entry) above
Sequence (Q14344 with tags, fused parts or gaps Q373D partner): as the sequence (Q14344 whole entry partner) above, with Q373D counted along it
Sequence (P16520 whole entry partner): as the sequence (P16520 whole entry partner) above
Sequence (O14610 1-66 partner limits assumed): as the sequence (O14610 1-66 partner limits assumed) above
pEC50: −log10 of the molar value.

# Cpd Smiles, pEC50
measured = [
    ("Cc1cccc(N2CCN(C(=O)c3cc(S(=O)(=O)N(C)C)ccc3N3CCCC3)CC2)c1C", 7.77),
]
